Documented Ratio IC50 across a set of molecules
species: Homo sapiens; test: Selectivity factor, ratio of IC50 for Bad-derived peptide from Bcl-XL (unknown origin) to IC50 for displacement of Bax-derived peptide from Bcl-2 (unknown origin)

structure_notation: CC1(C)CCC(c2ccc(Cl)cc2)=C(CN2CCN(c3ccc(C(=O)NS(=O)(=O)c4ccc(OCC5(CN6CCOCC6)COC5)c(S(=O)(=O)C(F)(F)F)c4)cc3)CC2)C1
qualifier: =
Ratio IC50: 3.4
--
structure_notation: CC1(C)CCC(c2ccc(Cl)cc2)=C(CN2CCc3sc(C(=O)NS(=O)(=O)c4ccc(N[C@H](CCN5CCOCC5)CSc5ccccc5)c(S(=O)(=O)C(F)(F)F)c4)cc3C2)C1
qualifier: =
Ratio IC50: 0.46
--
structure_notation: CC1(C)CCC(c2ccc(Cl)cc2)=C(CN2CCN(c3ccc(C(=O)NS(=O)(=O)c4ccc(N[C@@H](CC5CC5)C(=O)N5CCOCC5)c(S(=O)(=O)C(F)(F)F)c4)cc3)CC2)C1
qualifier: =
Ratio IC50: 0.87
--
structure_notation: CC1(C)CCC(c2ccc(Cl)cc2)=C(CNC2(Cn3cnc4cc(C(=O)NS(=O)(=O)c5ccc(N[C@H](CCN6CCOCC6)CSc6ccccc6)c(S(=O)(=O)C(F)(F)F)c5)ccc43)CC2)C1
qualifier: =
Ratio IC50: 0.27
--
structure_notation: CC1(C)CCC(c2ccc(Cl)cc2)=C(CN2CCN(c3ccc(C(=O)NS(C)(=O)=O)cc3)CC2)C1
qualifier: >
Ratio IC50: 2.02

###

UniProtKB Q07817 data, read-out log10(IC50)
Sequence (Q07817 whole entry): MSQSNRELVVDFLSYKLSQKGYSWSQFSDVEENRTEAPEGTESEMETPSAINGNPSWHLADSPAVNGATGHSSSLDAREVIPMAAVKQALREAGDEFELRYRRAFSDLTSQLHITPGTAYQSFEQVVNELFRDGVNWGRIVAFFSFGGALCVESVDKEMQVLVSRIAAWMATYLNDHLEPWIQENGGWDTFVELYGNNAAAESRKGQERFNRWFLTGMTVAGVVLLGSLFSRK
property: log10(IC50) (log10 of the value in µM)

structure_notation: CC1(C)CCC(c2ccc(Cl)cc2)=C(CN2CCN(c3ccc(C(=O)NS(=O)(=O)c4ccc(OCC5(CN6CCOCC6)COC5)c(S(=O)(=O)C(F)(F)F)c4)cc3)CC2)C1
number: -1.31
--
structure_notation: CN(C)c1ccc(S(=O)(=O)NC(=O)c2ccc(N3CCN(CC4=C(c5ccc(Cl)cc5)CCC(C)(C)C4)CC3)cc2)cc1S(=O)(=O)C(F)(F)F
number: -0.66
--
structure_notation: CC1(C)CCC(c2ccc(Cl)cc2)=C(CN2CCc3cc(C(=O)NS(=O)(=O)c4ccc(N[C@H](CCN5CCOCC5)CSc5ccccc5)c(S(=O)(=O)C(F)(F)F)c4)ccc3C2)C1
number: -1.84
--
structure_notation: CC1(C)CCC(c2ccc(Cl)cc2)=C(CN2CCN(c3ccc(C(=O)NS(=O)(=O)c4ccc(N5CC(F)(F)C5)c(S(=O)(=O)C(F)(F)F)c4)cc3)CC2)C1
number: -0.79
--
structure_notation: CC1(C)CCC(c2ccc(Cl)cc2)=C(CN2CCN(c3ccc(C(=O)NS(=O)(=O)c4ccc(N[C@@H](CC5CC5)C(=O)N5CCOCC5)c(S(=O)(=O)C(F)(F)F)c4)cc3)CC2)C1
number: -1.23

###

species on record: Homo sapiens; assay: Selectivity factor, ratio of IC50 for Bad-derived peptide from Bcl-XL (unknown origin) to IC50 for displacement of Bax-derived peptide from Bcl-2 (unknown origin)

structure_notation: CC1(C)CCC(c2ccc(Cl)cc2)=C(CN2CCc3cc(C(=O)NS(=O)(=O)c4ccc(N[C@H](CCN5CCOCC5)CSc5ccccc5)c(S(=O)(=O)C(F)(F)F)c4)ccc3C2)C1
qualifier: =
Ratio IC50: 1.15
--
structure_notation: Cn1ccc(S(=O)(=O)NC(=O)c2ccc(N3CCN(CC4=C(c5ccc(Cl)cc5)CCC(C)(C)C4)CC3)cc2)n1
qualifier: >
Ratio IC50: 14.8
--
structure_notation: CC1(C)CCC(c2ccc(Cl)cc2)=C(CN2CCN(c3ccc(C(=O)NS(=O)(=O)c4ccc(N[C@@H](CC5CC5)CN5CCOCC5)c(S(=O)(=O)C(F)(F)F)c4)cc3)CC2)C1
qualifier: =
Ratio IC50: 1.62
--
structure_notation: CN(C)c1ccc(S(=O)(=O)NC(=O)c2ccc(N3CCN(CC4=C(c5ccc(Cl)cc5)CCC(C)(C)C4)CC3)cc2)cc1S(=O)(=O)C(F)(F)F
qualifier: =
Ratio IC50: 3.34
--
structure_notation: CC1(C)CCC(c2ccc(Cl)cc2)=C(CN2CCc3nc(C(=O)NS(=O)(=O)c4ccc(N[C@H](CCN5CCOCC5)CSc5ccccc5)c(S(=O)(=O)C(F)(F)F)c4)sc3C2)C1
qualifier: =
Ratio IC50: 0.35
--
structure_notation: CC1(C)CCC(c2ccc(Cl)cc2)=C(CN2CCN(c3ccc(C(=O)NS(=O)(=O)c4ccc(N5CC(F)(F)C5)c(S(=O)(=O)C(F)(F)F)c4)cc3)CC2)C1
qualifier: =
Ratio IC50: 3.48
